# credit: paper PMC9482650

- target-of-assay: PARD3_3, Q8TEW0
- Sequence (Q8TEW0 582-685): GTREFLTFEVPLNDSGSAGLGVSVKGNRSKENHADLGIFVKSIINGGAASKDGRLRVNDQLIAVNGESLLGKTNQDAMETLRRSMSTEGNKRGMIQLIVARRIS
- protocol-summary: holdup assay
- Parameters: key: below the threshold = too weak to quantify, mostly under pKd 3.1 to 4
- measurement-setup: plain residues with an end cap or a label only (N-terminal biotin on a linker: ado-ado)
property-label: pKd

# example entries with known answers
binder="SPDRDRESIV [SCN5A, Q14524]" reported_measurement=3.86
binder="KKMLQRRTLL [OR8G1, Q15617]" reported_measurement="below the threshold"
binder="EDLEDEWEVI [TECPR2, O15040]" reported_measurement=5.6
binder="TNSRHGETTV [FZD2, Q14332]" reported_measurement="below the threshold"
binder="IDESKKEWLI [CNTNAP2, Q9UHC6]" reported_measurement=5.28

Query: Give the measured pKd of LKDDELKTKL [SLCO1A2, P46721] .
Response: below the threshold

Query: Give the measured pKd of LAHVKHKEQI [AQP3, Q92482] .
Response: below the threshold

Query: Give the measured pKd of PPGKHLVTEV [KCNA7, Q96RP8] .
Response: below the threshold

Query: Give the measured pKd of STKRKLASAV [NCF1, P14598] .
Response: below the threshold

Query: Give the measured pKd of SVTSERETNI [SLC16A7, O60669] .
Response: below the threshold

Query: Give the measured pKd of AAVENKVTDL [PLXNB1, O43157] .
Response: below the threshold

Query: Give the measured pKd of QLSFNTDTLC [ABCA2, Q9BZC7] .
Response: below the threshold

Query: Give the measured pKd of NISYRRESAI [KCNJ4, P48050] .
Response: below the threshold

Query: Give the measured pKd of DDASLPVSDV [PLEKHA1, Q9HB21] .
Response: below the threshold

Query: Give the measured pKd of AQRARSPSDV [GPR12, P47775] .
Response: below the threshold
